assay: yeast display, Sf9 membrane polyspecificity reagent, FACS + sequencing; frameworks hold sequencing errors
VALUE_KIND: polyreactivity (PSR sort gate)

residues=QVQLEESGGGLVQPGGSLRLSCAASGIIFAYNAMGWNRQAPGKERELVATITDSGGTTSYADSVKGRFTISRDNAKNTVYLQMNRLKQEDTAVYYCAVLPVYWYWRNYVYLSGYDYWGQGTQVNVSS observed_measurement="low polyreactivity"
residues=QVHLEESGGGLVQAGGSLRLSWAASGATFSNYTMGWDRQAPGNERELVAAISRTGGSTYYADSVNGRFTISRDNAKNHVYLQISSLEPEDNAVYYCAAICYVGRYYYWGQGNQVTVSS observed_measurement="high polyreactivity"
residues=QVQLVESGGGLVQAGGSLRLSCAASGRTFPINAMGWYRQAPGKERELVASIRWTDGTTYYADSVKGRFTISRDNAKNTVYLQMNSLKPEDTAVYYCAADAEGSASKYDYWGQGTQVTVSS observed_measurement="low polyreactivity"
residues=QVQHEESGGGLVQAGGSLRLSCAASGRIFGAYPMGWSRQATGKERELVAAITSRGGNTYYADSVKGRFTISRDNAKNTVYLQMNSLKPEDTAVYYCAARHDKRRQYYVGQSAFDYWGQGTQVTVSS observed_measurement="low polyreactivity"
residues=QVQLVESGGGLVQAGGSLRLSGAASGSTFIINAMGWSSQAPGKELELVAAISGRGTRTYYADSVKGRFTISRDNAKNTVYLQMNSLNPEDTAVYSCAALDTAGPYNTLDIYDHWGQGTQVTVSS observed_measurement="high polyreactivity"

====

experiment: yeast display, Sf9 membrane polyspecificity reagent, FACS + sequencing; frameworks hold sequencing errors
VALUE_KIND: polyreactivity (PSR sort gate)

residues=QVQLVESGGGLVQAGGTLSLSCAATGRNLSYAMGWYRQAPGKERELVAAMNWSGGTTYYADSVKGRFTISRDNAKNTVYLQMNSLKQEDTAVYYCAARVRGTGYNSWGQGTQLTVSS observed_measurement="high polyreactivity"
residues=QVQLVESGGGLVLAGGSLRLSCAASGRILGSYAMGWYRQAPGKERELVAGISWRGGRTSYADSVKGRFTISRDNAKNPVYLQMNSLKPEDTAVYYCATRSSSRKYGYWGQGTQVTVSS observed_measurement="high polyreactivity"
residues=QVQLVESGGGLVQAGGSLRLSCAASGRIFVVYVMGWYRQAPGKEREFVAAITWGGGNTYYADSVKGRFTISRDNAKNTVYLQMNSLIPEDTAVYYCAAAPRKYVWMDYWGQGTQVTVSS observed_measurement="low polyreactivity"
residues=QVQLVESGGGLVQAGGSLRLSCAACGRIFGGNTMGWYRQAPGKQRELVAAITVRGGSTYYADSVKGRFTISRDNAKNTVYLQMNSLKPEDTAVYYCAARRRIFPPRFGYWGQGTQVTVSS observed_measurement="high polyreactivity"
residues=QVQLVESGGGLVQAGGSLRLSCAASGRIFLFNAMGWYRQAPGKEREFVAAISASGGSTYYADSVKGRFTISRDNAKNTVYLQMNSLKPEDTAVYYCAADYLYTRDVDYDYWGQGTQVTVSS observed_measurement="low polyreactivity"
residues=QVQHVESRGGLVQAGGSLRLSCAASGIIFSRNAMGWSRKAPGKERELLSGITSSGGTTYYADSVKGRFTISRDNAKNTVYLQMNSLKAEDTAVYYCAAYSTQNYSYRRYYYWGQGTQVTVSS observed_measurement="high polyreactivity"
residues=QVQLVESGGGLVQAGGSLRLSCAASGITFDSYAMGWYRQAPGKERELVAAISYSGGSTYYADSVKGRFTISRDNAKNTVYLQMNSLKPEDTAVYYCAAASDDDYDYWGQGTQVTVSS observed_measurement="low polyreactivity"
residues=QVQLVESGGGLVQAGGSLRLSCAASGLTFSYYTMGWYRQAPGKERELVAAISKSAGSTYYADSVKGRFTISRDNAKNTVYLQMNSLKPEDTAVYYCAARFGYQYSYGYNYWGQGTQVTVSS observed_measurement="high polyreactivity"
residues=QVQLVESSGGLVQAGGSLRLRCAASGMISEYNAMGWSRQAPGKERELVAAITWNGGSTFYADSVKGRFTISRDNAKNTVYLQMNSLKPEDTAVYYCNKTRLEPEYGYWGQGTQVTVSS observed_measurement="low polyreactivity"
residues=QVQLVESGGGLVQAGGRLRLSCAATGRTFLAYAMGWYREAPGKERELVAAITIGGGTYADSVKGRFTISRDNAKNTVYLQMNSLKQEDTAVYYCAKPGWYDGDYWGQGTQVTVSS observed_measurement="low polyreactivity"
residues=QVQLVESGGGLVQAGGSLRLSCAASGIIFYPYAMGWYRQEPGKERYLVASISSGGDTNYADSVKGRFTISRDNAKNTVYLQMNSLKPEDTAVYYCAARVRVQYWWEYYYWGQGTQVTVSS observed_measurement="high polyreactivity"
residues=QVQLVESGGGLVQAGGSLRLSCAASGRIFFWYAMGWYRQAPGTERELVAGITSGGSTNYADSVKGRFTISRDNAKNTVYLQMNSLKPEDTAVYYCAKRSYRTHTYDYWGQGTQVTVSS observed_measurement="low polyreactivity"
residues=QVHLVESGGGLVQAGGSLRLSCAASGRTSIFNAMGWYRPAPGKERELVAAITARGASTYYADSVKGRFTISRDNAKNTVYLQKNSLKPDDTAVYYCAARDHAFRYYRNPFKGKYDYWGQGTQVTVSS observed_measurement="low polyreactivity"
residues=QVQLVESGGGFVQAGGSLRLSCAASGFTFQYYGMGWYRQAPGKERELVAAINWSGGRTYYADSVKGRFTISRDNAKNTVYLQMNSLKPEDTAVYYCAATRSFSGGYGYVSYDYWGQGTQVTVSS observed_measurement="high polyreactivity"
residues=QVQLVESGGGLVQAGGSLRLSCAASGLTFEVYAMGWYRQAPGKERELVAAISSGGGSTYYADSVKGRFTISRDNGKNTVYLQMNSLKPEDTAVYYCNADALIAAYKYFPYTYRFNYWGQGTQVTVSS observed_measurement="low polyreactivity"
residues=QVQLVESGGGLVQAGGSLRLSCDASGRIFYANAMGWYRQAPGKERELVAGISSGGITNYADSVKGRFTISRDNAKNTVYLQMNSLKPEDTAVYYCAARRWSTGGYGQFDYWGQGTQVTVSS observed_measurement="low polyreactivity"
residues=QVQLVESGGCLVQAGGSLRLSCAASGRTYQNNAMGWYRQAPGKERELVAAISRSGASTYYADSVKGRFTISRDNAKNTVYLQMNSLKPEDTAVYYCAARYPRTAYDYWGQGTQVTVSS observed_measurement="low polyreactivity"
residues=QVQLVESGGGLVQAGCSLRLSCAASGSTFDNYAMGWYRQAPGKERELVAAISSSGTRTYYADSVKGRFTISRDNAKNTVYLQMNSLKPEDTAVYYCAAGGHYYSSPGYNYWGLGTQVTVSS observed_measurement="high polyreactivity"
residues=QVQLVESGGGLVQAGGSLRLSCAASGRIIYTYAMGWYRQAPGKERELVAAISWSGGSTYYADSVKGRFTISRDNAKNTVYLQMNSLKPEDTAVYFCNAAYYGYENLSKRGYWGQGTQVTVSS observed_measurement="high polyreactivity"
residues=QVQLVESGRGLVQAGGSLRLSCAASGSTFRYYAMGWYRQAPGKERELVAAISYSGGSTYYADSVKGRFTISRDNAKNTVYLQMNSLKPEDTAVYYCASSWYSIGKRYYYWGQGTQVTVSS observed_measurement="high polyreactivity"
residues=QVQLVESGGGLVQAGGSLRLTCADSGIIYTYNAMRWYRQAPGKEMEFVATITWSGGSTYYADSVKGRFTISRDNAMNTVYFQMNSLKPEDTAVYYCAVDYSRHGYWSPVYEFNYWGQGTQVTVSS observed_measurement="low polyreactivity"
